Data credit: PubChem BioAssay (NCI)

Listing of recorded TGI by entry.
- System: KM12 colon
- Assay method text: NCI tumour cell line growth inhibition, 48 h
Measurement label: TGI (µM)

[
  {
    "Smiles": "O=C(NC1(c2cc3ccccc3s2)CCCCC1)C1CCC1",
    "Measurement label": "TGI",
    "Qualifier operator": ">",
    "Test result": 100
  },
  {
    "Smiles": "S=c1[nH]nc(CNc2ccc(-c3n[nH]c(=S)n3-c3ccc(Cl)cc3)cc2)n1-c1ccc(Cl)cc1",
    "Measurement label": "TGI",
    "Qualifier operator": "=",
    "Test result": 44
  },
  {
    "Smiles": "Cc1cc(NCCCCCCCCNc2cc(C)nc3cc(N)ccc23)c2ccc(N)cc2n1",
    "Measurement label": "TGI",
    "Qualifier operator": "=",
    "Test result": 37.8
  },
  {
    "Smiles": "CN(C)CCCc1cccc2[nH]c3c(c12)CN(C)CC3",
    "Measurement label": "TGI",
    "Qualifier operator": ">",
    "Test result": 100
  },
  {
    "Smiles": "Cc1cc(O)c(=O)cc2c1C[C@H]1CC(C)(C)/C=C/C[C@]3(C)Oc4cc(=O)c(O)cc(C)c4C[C@H]3C[C@H](O)[C@@]1(C)O2",
    "Measurement label": "TGI",
    "Qualifier operator": ">",
    "Test result": 100
  }
]

* * *

- Test system: SF-268 CNS
- Assay method text: NCI tumour cell line growth inhibition, 48 h

[
  {
    "Compound": "O=C(O[C@@H](/C=C/c1ccccc1)P1(=O)N(Cc2ccccc2)[C@H]2CCCC[C@@H]2N1Cc1ccccc1)c1ccccc1",
    "TGI": "> 100 µM"
  },
  {
    "Compound": "O=C(O)CN1C=C(C(=O)c2cc3ccccc3n2S(=O)(=O)c2ccccc2)CCC1",
    "TGI": "> 100 µM"
  },
  {
    "Compound": "CC(C)(C)OC(=O)NC(CCCCNC(=O)OCc1ccccc1)C(=O)NCCNc1ccc(NCCNC(=O)C(CCCCNC(=O)OCc2ccccc2)NC(=O)OC(C)(C)C)c2c1C(=O)c1ccccc1C2=O (stereo not given)",
    "TGI": "> 64.6 µM"
  },
  {
    "Compound": "COc1cc(NS(C)(=O)=O)ccc1Nc1cc[nH]c2ccc3nccc3c12",
    "TGI": "25 µM"
  },
  {
    "Compound": "COC(=O)CCC(NC(=S)N/N=C(\\C)c1cnc2ccccc2n1)C(=O)OC (stereo not given)",
    "TGI": "> 100 µM"
  },
  {
    "Compound": "O=C1C[C@H](c2ccccc2)O[C@@H](c2ccccc2)C1",
    "TGI": "> 100 µM"
  },
  {
    "Compound": "O=c1[nH]c(Nc2ccc(Cl)c(C(F)(F)F)c2)nc2nc[nH]c12",
    "TGI": "> 100 µM"
  },
  {
    "Compound": "Cc1nc2ccc(Nc3nc(Cl)nc(N4CCOCC4)n3)cc2n1Cc1ccccc1",
    "TGI": "> 100 µM"
  },
  {
    "Compound": "c1ccc([P+](CCSCCSCC[P+](c2ccccc2)(c2ccccc2)c2ccccc2)(c2ccccc2)c2ccccc2)cc1",
    "TGI": "> 100 µM"
  },
  {
    "Compound": "CC(Nc1ncc2c(n1)-c1ccccc1OC2)C(=O)O (stereo not given)",
    "TGI": "> 100 µM"
  }
]
